Quick reference for viability, T/C among some compounds
Tested on: 857933-349-R-J2-PDC complex spheroids, viability;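 note: spheroids exposed to compounds for one week before readout; percent viability relative to vehicle DMSO wells taken as 100%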
method summary: Anticancer human tumor 857933-349-R-J2-PDC patient-derived colon adenocarcinoma cell line growth inhibition [GQUAD]
study conditions: second compound 0.316 µM; first compound 0.000999 µM; active compounds read low
Excerpt: DNA G-quadruplex Stabilizer Agents in Combinations in Complex Spheroids A high-throughput screen of multi-cell type tumor spheroids was designed to identify active combinations of DNA G-quadruplex stabilizer agents and targeted small molecules. […] Compounds. […] If the clinical Cmax for an agent had not been determined, the highest concentration tested was 10 microM. […]
measurement name: viability, T/C (%)

compound="Cc1[nH]c2ccccc2c1CCNCc1ccc(/C=C/C(=O)NO)cc1 + CN(C)c1ccc(Nc2c3ccc(NC(=O)CCN4CCCC4)cc3nc3cc(NC(=O)CCN4CCCC4)ccc23)cc1" observed_value=104
compound="Cc1[nH]c2ccccc2c1CCNCc1ccc(/C=C/C(=O)NO)cc1 + Cc1cnc(CNC(=O)c2c(=O)c3ccc(N4CCCN(C)CC4)nc3n3c2sc2ccccc23)cn1" observed_value=20.1
compound="CCc1c2c(nc3ccc(O)cc13)-c1cc3c(c(=O)n1C2)COC(=O)[C@]3(O)CC + Cc1[nH]c2ccc(F)cc2c1-c1nc2c3cccnc3c3ncccc3c2[nH]1" observed_value=73.5
compound="CC[C@@]1(O)C(=O)OCc2c1cc1n(c2=O)Cc2cc3c(CN(C)C)c(O)ccc3nc2-1 + Cc1[nH]c2ccc(F)cc2c1-c1nc2c3cccnc3c3ncccc3c2[nH]1" observed_value=102
compound="Cn1ncnc1[C@H]1c2n[nH]c(=O)c3cc(F)cc(c23)N[C@@H]1c1ccc(F)cc1 + Cc1[nH]c2ccc(F)cc2c1-c1nc2c3cccnc3c3ncccc3c2[nH]1" observed_value=97.3
compound="CCc1c2c(nc3ccc(O)cc13)-c1cc3c(c(=O)n1C2)COC(=O)[C@]3(O)CC + CN(C)c1ccc(Nc2c3ccc(NC(=O)CCN4CCCC4)cc3nc3cc(NC(=O)CCN4CCCC4)ccc23)cc1" observed_value=98
compound="CCc1c2c(nc3ccc(O)cc13)-c1cc3c(c(=O)n1C2)COC(=O)[C@]3(O)CC + Cc1cnc(CNC(=O)c2c(=O)c3ccc(N4CCCN(C)CC4)nc3n3c2sc2ccccc23)cn1" observed_value=25.9
compound="Cc1[nH]c2ccccc2c1CCNCc1ccc(/C=C/C(=O)NO)cc1 + Cc1[nH]c2ccc(F)cc2c1-c1nc2c3cccnc3c3ncccc3c2[nH]1" observed_value=101
compound="Cn1ncnc1[C@H]1c2n[nH]c(=O)c3cc(F)cc(c23)N[C@@H]1c1ccc(F)cc1 + CN(C)c1ccc(Nc2c3ccc(NC(=O)CCN4CCCC4)cc3nc3cc(NC(=O)CCN4CCCC4)ccc23)cc1" observed_value=106
compound="CC[C@@]1(O)C(=O)OCc2c1cc1n(c2=O)Cc2cc3c(CN(C)C)c(O)ccc3nc2-1 + CN(C)c1ccc(Nc2c3ccc(NC(=O)CCN4CCCC4)cc3nc3cc(NC(=O)CCN4CCCC4)ccc23)cc1" observed_value=108
compound="Cn1ncnc1[C@H]1c2n[nH]c(=O)c3cc(F)cc(c23)N[C@@H]1c1ccc(F)cc1 + Cc1cnc(CNC(=O)c2c(=O)c3ccc(N4CCCN(C)CC4)nc3n3c2sc2ccccc23)cn1" observed_value=28.8
compound="CC[C@@]1(O)C(=O)OCc2c1cc1n(c2=O)Cc2cc3c(CN(C)C)c(O)ccc3nc2-1 + Cc1cnc(CNC(=O)c2c(=O)c3ccc(N4CCCN(C)CC4)nc3n3c2sc2ccccc23)cn1" observed_value=23.6

Each recorded value in this set is attributed to PubChem BioAssay AID2060491.
